Measured target: sGC α1/β1 heterodimer (Homo sapiens, UniProt Q02108+Q02153)
Construct: expressed in transfected cells; host or cells: CHO-K1 (clone #7, CHO-K1/sGC)
Assay text: Cell-based sGC functional assay (CASA assay): cGMP generation in CHO-K1/sGC cells, HTRF detection
Condition info: CHO-K1, percent activation relative to standard Compound A in CHO-K1/sGC cells; read-out: % Act.
Recorded endpoint: Emax (%)

Below, 3 compounds whose answers are already recorded.
Compound	Unit of measurement	Emax
CCOc1ccc(C2(C)C(=O)Nc3nc(-c4cn5ccnc5c(CCC(F)(F)C(F)(F)F)n4)nc(N)c32)nc1 (stereo not shown) [Example 224A]	%	77
CC1(c2ccc(Cl)cc2)C(=O)Nc2nc(-c3cn4cc(C(F)(F)F)nc4c(Cc4ccc(F)cc4)n3)nc(N)c21 (stereo not shown) [Example 153A]	%	110
COc1ccc(C2(C)C(=O)Nc3nc(-c4cn5ccnc5c(CCC(F)(F)F)n4)nc(N)c32)cc1 (stereo not shown) [Example 192B]	%	168

I: Nc1nc(-c2cn3ccnc3c(CCCC(F)(F)F)n2)nc2c1C(c1cccc(C(F)(F)F)n1)(C1CC1)C(=O)N2 (single isomer, unassigned) [Example 368B]
II: CC1(c2ccc(F)cc2)C(=O)Nc2nc(-c3cn4cc(C5CC5)nc4c(CCC(F)(F)C(F)(F)F)n3)nc(N)c21 (stereo not shown) [Example 157A]
Field: lower recorded Emax (choose I or II ) Label of pick, please. II

---

Measured target: sGC α1/β1 heterodimer (Homo sapiens, UniProt Q02108+Q02153)
Construct: expressed in transfected cells; host or cells: CHO-K1 (clone #7, CHO-K1/sGC)
Sequence (Q02108 1-690): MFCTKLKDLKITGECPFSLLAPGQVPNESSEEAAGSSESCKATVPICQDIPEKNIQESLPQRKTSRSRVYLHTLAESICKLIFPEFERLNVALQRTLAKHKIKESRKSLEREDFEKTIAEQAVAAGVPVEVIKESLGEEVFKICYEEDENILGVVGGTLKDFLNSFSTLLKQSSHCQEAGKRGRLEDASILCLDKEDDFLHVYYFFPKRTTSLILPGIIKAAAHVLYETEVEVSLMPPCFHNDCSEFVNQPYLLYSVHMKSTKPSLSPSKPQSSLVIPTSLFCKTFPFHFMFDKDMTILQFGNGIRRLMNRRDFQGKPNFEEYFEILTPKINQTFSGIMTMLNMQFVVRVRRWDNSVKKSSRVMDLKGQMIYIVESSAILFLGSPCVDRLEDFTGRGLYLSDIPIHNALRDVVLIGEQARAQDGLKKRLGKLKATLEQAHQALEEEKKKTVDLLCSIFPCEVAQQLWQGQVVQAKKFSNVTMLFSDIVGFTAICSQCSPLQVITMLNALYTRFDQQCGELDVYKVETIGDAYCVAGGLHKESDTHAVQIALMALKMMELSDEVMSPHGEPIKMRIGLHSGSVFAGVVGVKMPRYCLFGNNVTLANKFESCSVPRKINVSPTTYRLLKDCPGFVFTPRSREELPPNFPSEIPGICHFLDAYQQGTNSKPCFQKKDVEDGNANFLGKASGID
Sequence (Q02153 1-619): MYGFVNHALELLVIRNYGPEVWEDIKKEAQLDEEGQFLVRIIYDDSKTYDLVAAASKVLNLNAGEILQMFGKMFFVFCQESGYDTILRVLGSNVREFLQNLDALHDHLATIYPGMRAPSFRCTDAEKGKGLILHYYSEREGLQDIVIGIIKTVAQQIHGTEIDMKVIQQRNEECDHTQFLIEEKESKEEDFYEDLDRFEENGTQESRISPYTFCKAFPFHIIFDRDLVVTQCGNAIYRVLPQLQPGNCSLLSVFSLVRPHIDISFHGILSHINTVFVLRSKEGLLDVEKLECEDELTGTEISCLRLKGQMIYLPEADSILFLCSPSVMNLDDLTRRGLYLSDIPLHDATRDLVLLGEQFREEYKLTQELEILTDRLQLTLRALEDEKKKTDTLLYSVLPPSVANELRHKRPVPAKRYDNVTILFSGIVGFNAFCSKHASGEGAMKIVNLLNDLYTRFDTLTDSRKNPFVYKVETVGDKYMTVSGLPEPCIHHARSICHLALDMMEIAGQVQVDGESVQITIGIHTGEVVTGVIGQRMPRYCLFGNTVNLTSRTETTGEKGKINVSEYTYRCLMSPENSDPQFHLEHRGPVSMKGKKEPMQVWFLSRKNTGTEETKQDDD
Assay text: Cell-based sGC functional assay (CASA assay): cGMP generation in CHO-K1/sGC cells, HTRF detection
Condition info: CHO-K1, percent activation relative to standard Compound A in CHO-K1/sGC cells; read-out: % Act.
Recorded endpoint: Emax (%)

Below, 8 molecules whose answers are already recorded.
Molecule	Unit of measurement	Emax
CC1(c2ccc(F)cc2)C(=O)Nc2nc(-c3cn4ccnc4c(CCc4ccccc4F)n3)nc(N)c21 (stereo not shown)	%	139
Cc1nc(C2(C3CC3)C(=O)Nc3nc(-c4cn5ccnc5c(CCCC(F)(F)F)n4)nc(N)c32)ccc1Cl (single isomer, unassigned) [Example 377B]	%	90
CC1(c2ccc(F)cc2)C(=O)Nc2nc(-c3cn4c(CCC5CCCCC5)cnc4cn3)nc(N)c21 (stereo not shown) [Example 261A]	%	116
CC1(C)CN(c2nc(-c3cn4ccnc4c(CCC(F)(F)C(F)(F)F)n3)nc3c2C(C)(c2ccc(F)cc2)C(=O)N3)CCO1 (stereo not shown) [Example 304A]	%	89
CCCCc1nc(-c2nc(N)c3c(n2)NC(=O)C3(c2ccc(Cl)c(F)c2)C2CC2)cn2ccnc12 (stereo not shown) [Example 329A]	%	93
CC(C)n1cc(C2(C)C(=O)Nc3nc(-c4cn5ccnc5c(Cc5ccc(F)cc5)n4)nc(N)c32)nn1 (stereo not shown) [Example 63A]	%	99
CC1(c2ccc(Cl)cc2)C(=O)Nc2nc(-c3cn4ccnc4c(Cc4ccc(F)cc4)n3)nc(N)c21 (stereo not shown) [Example 99A]	%	119
CC1(c2ccc(C(F)(F)F)cc2)C(=O)Nc2nc(-c3cn4ccnc4c(CCC(F)(F)C(F)(F)F)n3)nc(N)c21 (stereo not shown) [Example 237B]	%	119

I: CC1(C)C(=O)Nc2nc(-c3cn4ccnc4c(Cc4cccc(F)c4)n3)nc(N)c21
II: CC1(C)C(=O)Nc2nc(-c3cn4ccnc4c(CCC(F)(F)C(F)(F)F)n3)nc(N)c21
III: CCCCc1nc(-c2nc(N)c3c(n2)NC(=O)C3(c2ncc(Cl)cn2)C2CC2)cn2ccnc12 (stereo not shown) [Example 372A]
Hello, I need these entries ordered by Emax, highest reading first. Thanks! A complete answer lists every label in the requested sequence. III, I, II

a: CC1(c2ccc(Cl)cn2)C(=O)Nc2nc(-c3cn4ccnc4c(CCCC(F)(F)F)n3)nc(N)c21 (stereo not shown) [Example 208A]
b: CC1(c2ccc(F)cc2)C(=O)Nc2nc(-c3cn4ccnc4c(CCC(F)(F)C(F)(F)F)n3)nc(N3CCSCC3)c21 (stereo not shown) [Example 300A]
Field: lower recorded Emax (choose a or b ) Label of pick, please. a

a: CC1(c2ccc(Cl)cc2)C(=O)Nc2nc(-c3cn4ccnc4cn3)nc(NCC(F)(F)F)c21 (stereo not shown) [Example 288A]
b: COCCNc1nc(-c2cn3ccnc3c(CCC(F)(F)F)n2)nc2c1C(C)(c1ccc(Cl)cc1)C(=O)N2 (stereo not shown) [Example 296A]
Sorting by Emax in descending order, would a or b appear first? Label of pick, please. a
(a: 119%, b: 77%)

---

Measured target: sGC α1/β1 heterodimer (Homo sapiens, UniProt Q02108+Q02153)
Assay text: Cell-based sGC functional assay (CASA assay): cGMP generation in CHO-K1/sGC cells, HTRF detection
Condition info: inflection point (IP) of cGMP generation in CHO-K1/sGC cells, 4P fit; activity expressed as percentage of Compound A
Description: Biological Assay 1: Cell-Based sGC Functional Assay (CASA Assay) sGC is a heme-containing enzyme that converts GTP to secondary messenger cGMP. […] A CHO-K1 cell line stably expressing the sGC α1/β1 heterodimer was generated using a standard transfection protocol. […] The level of intracellular cGMP was determined using an HTRF-based assay kit (CisBio, 62GM2PEC), which detects the displacement of a fluorescence labeled cGMP from its specific antibody. […]
Recorded endpoint: EC50 (nM)

Below, 2 compounds whose answers are already recorded.
Compound	EC50 (nM)
CC1(c2ccc(F)cc2)C(=O)Nc2nc(-c3cn4cc(C(F)(F)F)nc4c(Cc4ccccc4F)n3)nc(N)c21 (stereo not shown) [Example 147A]	12
CN1CCN(c2nc(-c3cn4ccnc4c(CCC(F)(F)C(F)(F)F)n3)nc3c2C(C)(c2ccc(F)cn2)C(=O)N3)CC1 (stereo not shown) [Example 295B]	671

A: CC1(C(=O)NC2CC2)C(=O)Nc2nc(-c3cn4ccnc4c(Cc4ccccc4F)n3)nc(N)c21 (stereo not shown) [Example 35A]
B: COc1ccc(C2(C)C(=O)Nc3nc(-c4cn5ccnc5c(CCC(F)(F)C(F)(F)F)n4)nc(N)c32)cc1 (stereo not shown) [Example 229B]
Sorting by EC50 in descending order, would A or B appear first? Label of pick, please. B
(B: 26 nM, A: 16 nM)

Values compiled from patent US9796733B2.
